SYSTEM_TESTED: full-length P. pyralis luciferase (Photinus pyralis, UniProt P08659, K549A/L550V/N119G/N50D/S548I)
Sequence (P08659 whole entry N50D/N119G/S548I/K549A/L550V, looked up): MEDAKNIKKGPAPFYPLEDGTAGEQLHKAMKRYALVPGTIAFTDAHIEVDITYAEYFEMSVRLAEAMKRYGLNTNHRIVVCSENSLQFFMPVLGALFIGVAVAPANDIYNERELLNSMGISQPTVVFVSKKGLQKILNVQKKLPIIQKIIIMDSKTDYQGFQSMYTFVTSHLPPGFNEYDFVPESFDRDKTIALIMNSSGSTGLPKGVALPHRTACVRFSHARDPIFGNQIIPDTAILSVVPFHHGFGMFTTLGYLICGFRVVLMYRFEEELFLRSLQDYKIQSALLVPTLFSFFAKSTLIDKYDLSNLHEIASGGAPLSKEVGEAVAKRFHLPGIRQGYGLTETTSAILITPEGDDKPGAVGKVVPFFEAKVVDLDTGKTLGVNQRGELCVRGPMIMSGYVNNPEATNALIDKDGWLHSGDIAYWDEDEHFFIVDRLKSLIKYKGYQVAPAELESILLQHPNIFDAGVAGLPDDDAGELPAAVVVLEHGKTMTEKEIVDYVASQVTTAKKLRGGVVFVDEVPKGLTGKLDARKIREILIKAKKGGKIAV
Format: cell-based
MEASUREMENT_CONDITIONS: CC_NCI screening; normalized to on-plate 0.3% DMSO controls
MEASUREMENT_TYPE: Luciferase Assay Z-score (full-length luciferase counter-screen)

// below: answered compounds
- O=C1NC(=O)/C(=C/c2ccc(-c3ccc(F)cc3O)o2)S1: -3.86
- O=C(CCCCCCC(=O)Nc1ccccc1)NO: -1.99
- COc1ccc(OC)c2c(=S)c3ccccc3[nH]c12: -2.77

Fill blank: measured Luciferase Assay Z-score (full-length luciferase counter-screen) of the compound Nc1ncn([C@H]2C[C@H](O)[C@@H](CO)O2)c(=O)n1 [Decitabine, reference compound] is ____.
1.37

Which Luciferase Assay Z-score (full-length luciferase counter-screen) is reported for this compound? Cc1nc2c(O)cccc2c(=O)[nH]1
-1.32
